# Experiment: PAMPA (parallel artificial membrane permeability assay)
# Format: in vitro ADME
# Test Context: PAMPA; membrane permeation rate (Pe); 50 mM MOPSO buffer pH 6.5 with 5.0% glycocholic acid, 37° C., 18 hours; read-out: iPAMPA Pe
Starred links: 1 amine or outer side, 2 acyl side, 3 side chain; linkers in the order of their positions; H or OH if unused. Positions of bridges follow the written chain, without caps; N, C: chain ends. Non-standard residues stand in square brackets, D forms with d. Residues, ends and D or L forms follow the SMILES beside them. *: point of attachment. hhPhe = N[C@@H](CCCc1ccccc1)C(=O)O; NMeF = CN[C@@H](Cc1ccccc1)C(=O)O; NMeGABA = CN(CCCC(=O)[*:2])[*:1]; NMeβAla = CN(CCC(=O)[*:2])[*:1]; NMeL = CN[C@@H](CC(C)C)C(=O)O; NMeA = CN[C@@H](C)C(=O)O; Piperidide = C1CCN(*)CC1; Sar = CNCC(=O)O; tBu = CC(C)(C)*
List of Papp at 18 hours, 50 µM values.
Give just the numeric value; ×10⁻⁶ cm/s need not be written.

Worked examples, 3 molecules total:
>  <Molecule>
CC(C)C[C@H]1C(=O)N[C@@H](C(C)C)C(=O)N[C@H](C(=O)N(C)[C@@H](Cc2ccccc2)C(=O)N[C@@H](C)C(=O)N2CCCCC2)CC(=O)N[C@H](C(C)C)C(=O)N(C)[C@@H](Cc2ccccc2)C(=O)N(C)[C@@H](C)C(=O)N(C)[C@@H](CC(C)C)C(=O)N[C@@H]([C@@H](C)O)C(=O)N(C)CC(=O)N1C [DP-198] ([dV][NMeF][NMeA][NMeL]T[Sar][NMeL]VD[NMeF]A-Piperidide; lactam N-9)

>  <Papp at 18 hours, 50 µM / ×10⁻⁶ cm/s>
36

$$$$
>  <Molecule>
CC[C@H](C)[C@@H]1NC(=O)[C@H](CC(C)C)NC(=O)[C@H](C(C)C)NC(=O)[C@H](CC(C)C)N(C)C(=O)[C@H](CC(C)C)NC(=O)[C@H](CCCc2ccccc2)NC(=O)[C@H]([C@@H](C)O)NC(=O)[C@H](C)N(C)C(=O)[C@H](CC(C)C)NC(=O)[C@H](C)N(C)C(=O)C[C@@H](C(=O)N2CCCCC2)NC1=O [DP-729] ([NMeA]L[NMeA]T[hhPhe]L[NMeL]VLID-Piperidide; lactam N-11)

>  <Papp at 18 hours, 50 µM / ×10⁻⁶ cm/s>
4.7

$$$$
>  <Molecule>
CC(C)C[C@H]1C(=O)N[C@H](C(=O)N2CCCCC2)CC(=O)N[C@H](C)C(=O)N(C)[C@@H](Cc2ccccc2)C(=O)N(C)[C@@H](CC(C)C)C(=O)N[C@@H]([C@@H](C)O)C(=O)N(C)CC(=O)N1C [DP-537] ([dA][NMeF][NMeL]T[Sar][NMeL]D-Piperidide; lactam N-7)

>  <Papp at 18 hours, 50 µM / ×10⁻⁶ cm/s>
10

$$$$

Query: Requested field: Papp at 18 hours, 50 µM. Item: CC(C)C[C@H]1C(=O)N[C@@H]([C@@H](C)O)C(=O)N(C)[C@@H](CC(C)C)C(=O)N(C)CC(=O)N(C)[C@@H](Cc2ccccc2)C(=O)N[C@@H](COC(C)(C)C)C(=O)N[C@H](C(=O)N2CCCCC2)CC(=O)N1C [DP-717] ([NMeL]T[NMeL][Sar][NMeF]S(tBu)D-Piperidide; lactam N-7)
Reply: 21

Query: Requested field: Papp at 18 hours, 50 µM. Item: CC(C)C[C@H]1C(=O)N(C)[C@@H](CC(C)C)C(=O)N[C@@H](COC(C)(C)C)C(=O)N[C@H](C(=O)N2CCCCC2)CC(=O)N(C)CCCC(=O)N(C)[C@@H](Cc2ccccc2)C(=O)N[C@@H]([C@@H](C)O)C(=O)N(C)CC(=O)N1C [DP-695] ([NMeGABA][NMeF]T[Sar][NMeL][NMeL]S(tBu)D-Piperidide; lactam N-8)
Reply: 15

Query: Requested field: Papp at 18 hours, 50 µM. Item: CC(C)C[C@H]1C(=O)N(C)[C@@H](Cc2ccccc2)C(=O)N[C@@H]([C@@H](C)O)C(=O)N(C)[C@@H](C)C(=O)N[C@@H](C(C)C)C(=O)N(C)[C@@H](CC(C)C)C(=O)N(C)[C@@H](CC(C)C)C(=O)N[C@H](C(=O)N(C)[C@@H](Cc2ccccc2)C(=O)N[C@@H](C)C(=O)N2CCCCC2)CC(=O)N(C)CCC(=O)N1C [DP-201] ([NMeβAla][NMeL][NMeF]T[NMeA]V[NMeL][NMeL]D[NMeF]A-Piperidide; lactam N-9)
Reply: 27
